Please respond with reported Activity for every item in the list.
- Test system: HL-60(TB)
- PROTOCOL DETAILS: Growth inhibition of human HL-60(TB) cells assessed tumor cell growth at 10^-5 M
- Type: functional
- Parameters: scale not given: the % may be the effect or the level left
Please don't drop the unit; write it after the number.

input: What does the record list as Activity for `CC1=NN(c2cccc(Cl)c2)C(=O)/C1=C\c1c(O)ccc2ccccc12` ?
output: 104.49%

input: What would you report for `CC1=NN(c2cccc(Cl)c2)C(=O)/C1=C\c1ccccn1` ?
output: 113.01%

input: Repeat for the following molecule: `O=C1/C(=C\c2cn(C(=O)c3c(Cl)cccc3Cl)c3ccccc23)c2ccccc2N1C(=O)c1c(Cl)cccc1Cl`
output: 109%

input: Continue with `O=C1/C(=C\c2coc3ccccc3c2=O)c2ccccc2N1c1c(Cl)cccc1Cl`
output: 33.76%

input: Try this molecule too: `CN1C(=O)C(=Cc2coc3ccccc3c2=O)C(=O)N(C)C1=O`
output: 92.68%

input: // same read-out, input: `C=CCn1cc(/C=C2\C(=O)N(c3c(Cl)cccc3Cl)c3ccccc32)c2ccccc21`
output: 93.4%

input: Param item: `O=C1C(=Cc2cn(Cc3ccccc3)c3ccccc23)C(=O)N(Cc2ccccc2)C(=O)N1Cc1ccccc1`
output: 96.4%

input: Another molecule to check: `C=CCn1cc(/C=C2\C(=O)N(c3cccc(Cl)c3)N=C2C)c2ccccc21`
output: 99.5%

input: Repeat with `O=C1/C(=C\c2cn(C(=O)c3ccc(Cl)cc3)c3ccccc23)c2ccccc2N1C(=O)c1ccc(Cl)cc1`
output: 54.1%

input: And `CC1=NN(c2cccc(Cl)c2)C(=O)/C1=C\c1cn(S(=O)(=O)c2ccc(C)cc2)c2ccccc12` ?
output: 114.07%

input: Entry `CC1=NN(c2cccc(Cl)c2)C(=O)/C1=C\c1cn(C(=O)c2ccc(Cl)cc2)c2ccccc12` please
output: 117.42%

input: Also need `C#CCN1C(=O)/C(=C\c2cn(CC#C)c3ccccc23)c2ccccc21` , thanks.
output: 101.9%

input: What would you report for `Cc1ccc(S(=O)(=O)n2cc(/C=C3\C(=O)Nc4ccccc43)c3ccccc32)cc1` ?
output: 100.6%

input: Entry to check: `CC1=NN(c2cccc(Cl)c2)C(=O)/C1=C\c1cn(Cc2ccccc2)c2ccccc12`
output: 99.67%

input: Record: `CC1=NN(c2cccc(Cl)c2)C(=O)/C1=C\c1cn(C(=O)c2c(Cl)cccc2Cl)c2ccccc12`
output: 95.11%

input: What do you get for `O=C1Nc2ccccc2/C1=C/c1cn(C(=O)c2c(Cl)cccc2Cl)c2ccccc12` ?
output: 72.1%

input: Input `Cc1ccc(S(=O)(=O)n2cc(/C=C3\C(=O)N(c4c(Cl)cccc4Cl)c4ccccc43)c3ccccc32)cc1`
output: 79.6%

input: What do we get for `O=C1/C(=C\c2cn(Cc3ccccc3)c3ccccc23)c2ccccc2N1Cc1ccccc1` ?
output: 103.6%

input: Now the molecule `CC1=NN(c2cccc(Cl)c2)C(=O)/C1=C\c1c[nH]c2ccccc12`
output: 124.41%
